Tested on: HEK-293T
Assay: Multiplex assay against HEK293T
Type: toxicity, cell-based
Conditions: human, 24 h, 10 µM, compound concentration 10 uM, replicate 1
MEASURED_PARAMETER: Population Normal (%)
Write the figure, then the unit, nothing else.

smiles_repr=COc1cc(C(=O)N(CCCc2ccccc2)Cc2ccc(CC(=O)O)cc2)cc(OC)c1C measured_parameter="Population Normal (%)" result=92%
smiles_repr=CN(C)c1ccnc2sc3c(=O)n(N4CCCCCC4)cnc3c12 measured_parameter="Population Normal (%)" result=91%
smiles_repr=O=C(NCC(=O)N1CC[C@H](N[C@H]2CC[C@@](O)(c3ccc(-c4ncccn4)cn3)CC2)C1)c1cccc(C(F)(F)F)c1 measured_parameter="Population Normal (%)" result=92%

Answer with the recorded Population Normal (%) for the compound listed here: CN1CCN(c2nc3cc(C(F)(F)F)ccc3n3cccc23)CC1.O=C(O)/C=C\C(=O)O.O=C(O)/C=C\C(=O)O 90%

State, in one line, measured Population Normal (%) of COc1c(C)cc(NC(=O)c2nn(Cc3ccc(F)cc3)c3c2CN(C(=O)c2ccc[nH]2)C[C@]3(C)C(N)=O)cc1C 88%
